Biological target: Aryl hydrocarbon receptor (Homo sapiens, UniProt P35869)
Sequence (P35869 whole entry): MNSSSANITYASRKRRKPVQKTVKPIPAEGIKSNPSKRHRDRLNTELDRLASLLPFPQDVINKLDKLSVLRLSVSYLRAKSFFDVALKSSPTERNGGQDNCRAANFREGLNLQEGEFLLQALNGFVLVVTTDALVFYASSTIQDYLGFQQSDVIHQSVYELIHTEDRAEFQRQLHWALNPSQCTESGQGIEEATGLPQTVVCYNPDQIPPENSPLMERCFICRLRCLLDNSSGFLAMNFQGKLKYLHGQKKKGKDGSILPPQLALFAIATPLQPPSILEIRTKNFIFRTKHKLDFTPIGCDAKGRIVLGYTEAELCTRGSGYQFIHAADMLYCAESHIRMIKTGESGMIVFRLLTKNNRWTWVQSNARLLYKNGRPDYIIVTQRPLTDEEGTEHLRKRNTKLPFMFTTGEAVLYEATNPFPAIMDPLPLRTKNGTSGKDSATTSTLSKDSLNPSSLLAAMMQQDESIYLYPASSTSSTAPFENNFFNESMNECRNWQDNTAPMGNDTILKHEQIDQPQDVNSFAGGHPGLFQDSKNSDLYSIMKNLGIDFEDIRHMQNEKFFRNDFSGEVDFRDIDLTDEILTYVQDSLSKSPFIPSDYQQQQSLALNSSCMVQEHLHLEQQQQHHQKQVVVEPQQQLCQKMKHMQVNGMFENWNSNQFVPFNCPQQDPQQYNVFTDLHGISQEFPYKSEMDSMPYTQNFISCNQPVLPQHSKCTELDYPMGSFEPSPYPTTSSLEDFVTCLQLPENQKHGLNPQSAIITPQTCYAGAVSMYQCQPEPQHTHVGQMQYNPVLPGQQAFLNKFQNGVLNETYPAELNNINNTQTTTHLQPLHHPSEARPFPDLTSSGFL
Assay: Agonist activity at AhR in human HepG2 cells assessed as induction of CYP1A1 expression after 24 hrs by ethoxyresorufin-O-deethylase assay
metric-name: EC50 (nM)
Dear colleague, please return just the value in nM, with no unit written.

Q: Would you mind telling me what EC50 value was observed for `Cn1c2ccccc2c2cc3[nH]c4ccccc4c3c(C=O)c21` ?
Result: 0.26

---

fold induction at 24 h, 0.0032 µM: recorded values
Target: CYP1A1 (Homo sapiens, UniProt P35869)
Assay: Agonist activity at AhR in human HepG2 cells assessed as induction of CYP1A1 activity at 3.2 nM using 7-ethoxyresorufin as substrate after 24 hrs by ethoxyresorufin-O-deethylase assay relative to DMSO
Type: cell-based
Settings: probe 7-ethoxyresorufin, read-out: FC
Form rule: numeric answer, no unit written next to it.

The cases that follow already have their fold induction at 24 h, 0.0032 µM on record.
>>> test_value("Cn1c2ccccc2c2cc3[nH]c4ccccc4c3c(C=O)c21")
88.9
>>> test_value("CCCn1c2ccccc2c2cc3[nH]c4ccccc4c3c(CO)c21")
0.5
>>> test_value("OCc1c2c(cc3c4ccccc4n(Cc4ccccc4)c13)[nH]c1ccccc12")
0.7
>>> test_value("CCn1c2ccccc2c2cc3[nH]c4ccccc4c3c(CO)c21")
3.5
>>> test_value("OCc1c2[nH]c3ccccc3c2cc2[nH]c3ccccc3c12")
13.4

Q: Form: Entry = `Cn1c2ccccc2c2c(C=O)c3c(cc21)c1ccccc1n3C` | System = CYP1A1 (Homo sapiens, UniProt P35869) | fold induction at 24 h, 0.0032 µM = ____
Result: 3.4

---

Target: CYP1A1 (Homo sapiens)
Experiment: Agonist activity at AhR in human HepG2 cells assessed as induction of CYP1A1 activity at 0.13 nM using 7-ethoxyresorufin as substrate after 24 hrs by ethoxyresorufin-O-deethylase assay relative to 3-phenylbenzo[f]chromen-1-one
Assay type: cell-based
Settings: probe 7-ethoxyresorufin, read-out: FC
metric-name: fold induction at 24 h, 0.00013 µM
Form rule: numeric answer, no unit written next to it.

Q: Would you mind telling me what fold induction at 24 h, 0.00013 µM value was observed for `OCc1c2[nH]c3ccccc3c2cc2[nH]c3ccccc3c12` ?
Result: 5

---

Biological target: CYP1A1 (Homo sapiens, UniProt P35869)
Assay: Agonist activity at AhR in human HepG2 cells assessed as induction of CYP1A1 activity at 3.2 nM using 7-ethoxyresorufin as substrate after 24 hrs by ethoxyresorufin-O-deethylase assay relative to DMSO
Format: cell-based
Settings: probe 7-ethoxyresorufin, read-out: FC
metric-name: fold induction at 24 h, 0.0032 µM
Form rule: numeric answer, no unit written next to it.

The cases that follow already have their fold induction at 24 h, 0.0032 µM on record.
>>> test_value("CCn1c2ccccc2c2c(C=O)c3c(cc21)c1ccccc1n3C")
4.5
>>> test_value("O=c1cc(-c2ccccc2)oc2ccc3ccccc3c12")
1.1
>>> test_value("Cn1c2ccccc2c2cc3c(c(C=O)c21)c1ccccc1n3Cc1ccccc1")
4.2
>>> test_value("OCc1c2c(cc3c4ccccc4n(CC4CC4)c13)[nH]c1ccccc12")
0.5
>>> test_value("CCCn1c2ccccc2c2c(C=O)c3c(cc21)c1ccccc1n3C")
1.9

Now examine the next entry.
Q: Would you mind telling me what fold induction at 24 h, 0.0032 µM value was observed for `Cn1c2ccccc2c2cc3[nH]c4ccccc4c3c(CO)c21` ?
Result: 26.7

---

Molecular target: CYP1A1 (Homo sapiens)
Test: Agonist activity at AhR in human HepG2 cells assessed as induction of CYP1A1 activity at 0.13 nM using 7-ethoxyresorufin as substrate after 24 hrs by ethoxyresorufin-O-deethylase assay relative to DMSO
Type: cell-based
Conditions: probe 7-ethoxyresorufin, read-out: FC
metric-name: fold induction at 24 h, 0.00013 µM
Form rule: numeric answer, no unit written next to it.

The cases that follow already have their fold induction at 24 h, 0.00013 µM on record.
>>> test_value("O=c1cc(-c2ccccc2)oc2ccc3ccccc3c12")
0.8
>>> test_value("CCCn1c2ccccc2c2c(C=O)c3c(cc21)c1ccccc1n3C")
1.3
>>> test_value("CCCn1c2ccccc2c2cc3[nH]c4ccccc4c3c(CO)c21")
0.4

Now examine the next entry.
Q: Would you mind telling me what fold induction at 24 h, 0.00013 µM value was observed for `Cn1c2ccccc2c2c(C=O)c3c(cc21)c1ccccc1n3C` ?
Result: 1.6

---

Biological target: CYP1A1 (Homo sapiens, UniProt P35869)
Test: Agonist activity at AhR in human HepG2 cells assessed as induction of CYP1A1 activity at 0.13 nM using 7-ethoxyresorufin as substrate after 24 hrs by ethoxyresorufin-O-deethylase assay relative to DMSO
Assay type: cell-based
Details: probe 7-ethoxyresorufin, read-out: FC
metric-name: fold induction at 24 h, 0.00013 µM
Form rule: numeric answer, no unit written next to it.

>>> test_value("CCn1c2ccccc2c2c(C=O)c3c(cc21)c1ccccc1n3C")
1.4
>>> test_value("OCc1c2c(cc3c4ccccc4n(Cc4ccccc4)c13)[nH]c1ccccc12")
0.4
>>> test_value("Cn1c2ccccc2c2cc3[nH]c4ccccc4c3c(C=O)c21")
27.3
>>> test_value("OCc1c2c(cc3c4ccccc4n(CC4CC4)c13)[nH]c1ccccc12")
0.3
>>> test_value("Cn1c2ccccc2c2cc3c(c(C=O)c21)c1ccccc1n3Cc1ccccc1")
1

Q: Would you mind telling me what fold induction at 24 h, 0.00013 µM value was observed for `CCn1c2ccccc2c2cc3[nH]c4ccccc4c3c(CO)c21` ?
Result: 1.4

Q: Would you mind telling me what fold induction at 24 h, 0.00013 µM value was observed for `Cn1c2ccccc2c2cc3[nH]c4ccccc4c3c(CO)c21` ?
Result: 5.3

Q: Would you mind telling me what fold induction at 24 h, 0.00013 µM value was observed for `OCc1c2[nH]c3ccccc3c2cc2[nH]c3ccccc3c12` ?
Result: 3.8

This collection of values is drawn from ChEMBL document CHEMBL4616611.
